This collection of values is drawn from patent US9562035B2.

# subject.of.test: hFASN enzyme (full length) (Homo sapiens, UniProt P49327)
# Construct: 10 μL hFASN enzyme (full length, 300 ng, purified in house); made in house
# Sequence (P49327 whole entry): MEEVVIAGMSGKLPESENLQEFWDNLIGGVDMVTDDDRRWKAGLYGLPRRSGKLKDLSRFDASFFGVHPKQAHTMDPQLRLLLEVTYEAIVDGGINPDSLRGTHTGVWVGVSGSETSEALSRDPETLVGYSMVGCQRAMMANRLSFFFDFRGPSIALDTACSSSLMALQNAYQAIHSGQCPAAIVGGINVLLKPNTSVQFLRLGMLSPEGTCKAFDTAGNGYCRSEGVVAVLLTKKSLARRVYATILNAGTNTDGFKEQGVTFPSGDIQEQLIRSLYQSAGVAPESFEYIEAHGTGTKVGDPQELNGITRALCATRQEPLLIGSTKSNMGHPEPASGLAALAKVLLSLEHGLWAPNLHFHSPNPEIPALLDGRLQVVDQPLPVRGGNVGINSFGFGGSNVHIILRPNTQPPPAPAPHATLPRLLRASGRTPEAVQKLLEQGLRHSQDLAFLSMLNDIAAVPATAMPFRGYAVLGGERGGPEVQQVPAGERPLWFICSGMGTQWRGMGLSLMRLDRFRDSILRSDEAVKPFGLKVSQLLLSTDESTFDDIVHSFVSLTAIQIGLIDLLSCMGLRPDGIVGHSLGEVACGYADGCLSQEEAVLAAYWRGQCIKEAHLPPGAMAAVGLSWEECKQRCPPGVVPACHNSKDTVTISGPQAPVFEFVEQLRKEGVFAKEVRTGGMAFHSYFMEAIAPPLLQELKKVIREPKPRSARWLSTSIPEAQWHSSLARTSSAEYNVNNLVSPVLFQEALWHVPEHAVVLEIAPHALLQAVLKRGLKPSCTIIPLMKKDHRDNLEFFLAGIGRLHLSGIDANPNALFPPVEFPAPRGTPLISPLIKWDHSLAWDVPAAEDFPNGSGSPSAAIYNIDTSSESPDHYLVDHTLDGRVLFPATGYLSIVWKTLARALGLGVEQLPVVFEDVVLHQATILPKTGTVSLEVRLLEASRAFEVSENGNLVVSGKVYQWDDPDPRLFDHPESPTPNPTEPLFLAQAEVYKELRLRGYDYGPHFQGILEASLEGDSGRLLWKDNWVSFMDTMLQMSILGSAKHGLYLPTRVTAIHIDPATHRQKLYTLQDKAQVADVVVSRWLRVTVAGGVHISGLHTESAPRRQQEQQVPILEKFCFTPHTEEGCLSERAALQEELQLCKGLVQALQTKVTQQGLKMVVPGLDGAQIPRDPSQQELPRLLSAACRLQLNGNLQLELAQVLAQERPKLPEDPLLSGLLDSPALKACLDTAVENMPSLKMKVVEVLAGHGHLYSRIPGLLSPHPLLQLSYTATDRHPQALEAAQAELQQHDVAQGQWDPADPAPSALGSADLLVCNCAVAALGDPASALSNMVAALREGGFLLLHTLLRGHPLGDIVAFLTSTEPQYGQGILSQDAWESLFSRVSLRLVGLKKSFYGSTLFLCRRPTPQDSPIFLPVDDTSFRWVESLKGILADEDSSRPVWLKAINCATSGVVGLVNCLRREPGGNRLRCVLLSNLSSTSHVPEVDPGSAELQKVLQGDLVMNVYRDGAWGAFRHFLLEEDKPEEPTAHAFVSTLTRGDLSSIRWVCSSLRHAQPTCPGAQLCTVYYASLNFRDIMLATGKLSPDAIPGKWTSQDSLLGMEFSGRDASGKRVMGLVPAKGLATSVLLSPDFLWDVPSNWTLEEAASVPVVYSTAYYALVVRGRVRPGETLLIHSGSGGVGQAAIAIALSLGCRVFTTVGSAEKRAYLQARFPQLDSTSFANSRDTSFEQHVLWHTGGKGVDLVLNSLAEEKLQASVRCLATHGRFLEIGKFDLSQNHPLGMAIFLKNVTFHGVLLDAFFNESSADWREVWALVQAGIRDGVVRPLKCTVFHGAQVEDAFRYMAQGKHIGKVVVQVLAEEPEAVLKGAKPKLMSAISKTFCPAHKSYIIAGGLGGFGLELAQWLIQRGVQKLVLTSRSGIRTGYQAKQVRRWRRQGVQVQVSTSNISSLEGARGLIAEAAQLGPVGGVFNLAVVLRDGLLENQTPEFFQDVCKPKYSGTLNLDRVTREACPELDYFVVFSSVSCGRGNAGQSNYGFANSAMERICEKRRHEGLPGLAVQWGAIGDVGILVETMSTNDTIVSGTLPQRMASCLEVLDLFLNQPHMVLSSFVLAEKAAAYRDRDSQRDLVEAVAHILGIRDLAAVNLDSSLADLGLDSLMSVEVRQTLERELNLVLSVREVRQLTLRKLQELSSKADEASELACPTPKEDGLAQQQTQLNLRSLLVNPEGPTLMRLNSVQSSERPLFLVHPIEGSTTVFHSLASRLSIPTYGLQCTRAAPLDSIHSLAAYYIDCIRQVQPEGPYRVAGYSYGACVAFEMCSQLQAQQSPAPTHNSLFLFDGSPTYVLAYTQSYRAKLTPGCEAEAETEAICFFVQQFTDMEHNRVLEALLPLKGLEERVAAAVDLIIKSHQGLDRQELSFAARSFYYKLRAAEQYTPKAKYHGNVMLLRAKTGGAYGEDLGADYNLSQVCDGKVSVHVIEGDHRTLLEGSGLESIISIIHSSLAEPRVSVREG
# method: Fatty Acid Synthase (FASN) Inhibition Scintillation Proximity Assay
# Type: biochemical
# run.parameters: read-out: FASN % Effect @1E−05M
# Procedure: In this assay, inhibition of FASN activity is measured using ^3H-acetyl-CoA and malonyl-CoA as substrates. ^3H-Acetyl CoA is converted to ^3H-palmitate through a series of reactions by the FASN protein, which contains 7 functional domains and carries out 7 enzymatic reactions to ultimately produce ^3H-palmitate. […] Raw data generated by the instrument were normalized to % Controlmin values, which were calculated as: % Controlmin=100*(x−mLC)/(mHC−mLC) […]
property.measured: inhibition at 10 µM (%)
Answers are plain numbers, in %.

Reference set, count: 6
# compound, u, inhibition at 10 µM
data = [
    ("Cc1ccc(C(=O)N2CCC(c3ccc(-c4ccccc4C)cc3)CC2)cc1NC(=O)c1ccc(NC(C)C)nc1 [Compound 232]", "%", 85),
    ("CC(C)Nc1ccc(C(=O)Nc2cc(C(=O)N3CCC(c4ccc(-c5cnn(C)c5)cc4)CC3)ccc2N(C)C(C)C)cn1 [Compound 276]", "%", 93),
    ("Cc1ccc(C(=O)N2CCC(c3ccc4ccncc4c3)CC2)cc1NC(=O)c1ccc(Cl)nc1 [Compound 37]", "%", 94),
    ("Cc1ccc(C(=O)N2CCC(c3ccc(-c4cnn(C)c4)cc3)CC2)cc1NC(=O)c1ccc(Cl)c(Cl)c1 [Compound 123]", "%", 97),
    ("Cc1ccc(C(=O)N2CCC(c3ccc(-c4cnn(C)c4)cc3)CC2)cc1NC(=O)C1CN(C2CCC2)C1 [Compound 240]", "%", 106),
    ("Cc1ccc(C(=O)N2CCC(c3ccc(-c4cnn(C)c4)cc3)CC2)cc1NC(=O)c1ccccc1 [Compound 115]", "%", 99),
]

Please report the measured inhibition at 10 µM for Cc1ccc(C(=O)N2CCC(c3ccc(-c4cnn(C)c4)cc3)CC2)cc1NC(=O)C1CCN(C2CCCC2)CC1 [Compound 180] 104
